Below: a set of entries, each annotated with reported Singlet Quenching Rate Constant.
Assay: Protoporphyrin IX fluorescence lifetime quenching (singlet excited state)
Format: physicochemical
Settings: PPIX, acetonitrile solutions at room temperature
Procedure: Fluorescence lifetime measurements are a convenient way to measure singlet state quenching by stabilizers. Protoporphyrin IX decay traces were recorded in the absence and presence of compound I(a)(1) and alkoxy […] (FIG. 3). […] The quenching rate constant may be directly extracted from the slope of the plot of the inverse fluorescence lifetime vs. the concentration of the two compounds (FIG. 4). […]

compound	Singlet Quenching Rate Constant
COC(=O)C(C#N)=C1c2ccccc2Oc2ccccc21	3.7 10^9 M^−1s^−1
COC(=O)C(C#N)=C1c2ccccc2-c2ccccc21	5.3 10^9 M^−1s^−1
COC(=O)C(C#N)=C1c2ccccc2C(=O)c2ccccc21	5.2 10^9 M^−1s^−1
COC(=O)C(C#N)=C1c2ccccc2Sc2ccccc21 [Formula II(e)(1)]	0.65 10^9 M^−1s^−1
